outcomeMeasure: melting point (°C)

| querySmiles | uom | measuredNumber |
| --- | --- | --- |
| COc1cc2c(-c3cc4cc(Cl)cnc4[nH]3)cn(C)c2cc1OC | °C | 192 |
| COc1cc2c(-c3cc4c(C#N)ccnc4[nH]3)cn(CCN3CCN(C)CC3)c2cc1OC | °C | 196 |
| COc1cc(OC)c2c(c1)c(-c1cc3cccnc3[nH]1)cn2C | °C | 220 |

a. COc1cc2c(-c3cc4cc(F)cnc4[nH]3)cn(CCN3CCN(C)CC3)c2cc1OC
b. COc1cc2c(-c3cc4cc(F)cnc4[nH]3)cn(C)c2cc1OC
stdin: Which record shows the lower melting point: the first, a , or the second, b ? Please identify the chosen entry by its label.
stdout: a
(a: 188 °C, b: 283 °C)
